Target: T1, human recombinant GIP receptor (human, UniProt P48546 22-466)
T1 construct: whole, on cells; Assayed as washed membranes of CHO-K1 cells expressing the receptor; also called hGIP receptor
T1 sequence (looked up): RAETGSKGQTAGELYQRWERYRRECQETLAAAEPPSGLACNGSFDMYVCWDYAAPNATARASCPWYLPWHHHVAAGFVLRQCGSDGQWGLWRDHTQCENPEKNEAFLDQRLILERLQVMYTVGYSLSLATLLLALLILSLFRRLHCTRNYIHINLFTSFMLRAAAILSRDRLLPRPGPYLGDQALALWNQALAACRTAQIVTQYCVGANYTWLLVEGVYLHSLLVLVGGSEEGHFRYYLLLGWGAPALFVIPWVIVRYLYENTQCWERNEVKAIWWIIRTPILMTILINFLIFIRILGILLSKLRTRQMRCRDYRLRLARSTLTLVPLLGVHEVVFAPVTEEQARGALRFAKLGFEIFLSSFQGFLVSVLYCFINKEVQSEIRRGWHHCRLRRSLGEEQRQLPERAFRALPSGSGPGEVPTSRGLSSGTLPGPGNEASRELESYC
Assay: displacement of [125I]GIP, membranes of CHO-K1 cells expressing human GIP receptor
pKi: −log10 of the molar value.
experimental-readout: pKi

Guide cases for pKi, answers given:
XXEGTFISDYXIAMDKIHQQDFVNWLLAQKGKKNDWKHNIXQ (4-Pal at 1; Aib at 2; A5c at 11 and 41) [(4-Pal^1, Aib^2, A5c^11, 41)hGIP(1-42)-OH]; 8.09
FXEGTFISDYXIAMDKIHQQDFVNWLLAQKGKKNDWKHNIXQ (4CN-Phe at 1; Aib at 2; A5c at 11 and 41) [(4CN-Phe^1, Aib^2, A5c^11, 41)hGIP(1-42)-OH]; 7.84

(I) XXEGTFISDYXIAMDKIHQQDFVNWLLAQKGKKNDWKHNITQH (hTyr at 1; Aib at 2; A5c at 11) [(hTyr^1, Aib^2, A5c^11, His^43)hGIP(1-43)-OH]
(II) XXEGTFISDYXIAMDKIHQQDFVNWLLAQK (4Hppa at 1; Aib at 2 and 11; C-terminal amide) [(4Hppa^1, Aib^2, 11)hGIP(1-30)-NH2]
Pick one: I or II . Which has the bigger pKi number? Respond with the label that goes with your answer.
I
